Target: Torsin-1A-interacting protein 1 (Homo sapiens) (UniProt Q5JTV8)
Sequence (Q5JTV8 whole entry, looked up): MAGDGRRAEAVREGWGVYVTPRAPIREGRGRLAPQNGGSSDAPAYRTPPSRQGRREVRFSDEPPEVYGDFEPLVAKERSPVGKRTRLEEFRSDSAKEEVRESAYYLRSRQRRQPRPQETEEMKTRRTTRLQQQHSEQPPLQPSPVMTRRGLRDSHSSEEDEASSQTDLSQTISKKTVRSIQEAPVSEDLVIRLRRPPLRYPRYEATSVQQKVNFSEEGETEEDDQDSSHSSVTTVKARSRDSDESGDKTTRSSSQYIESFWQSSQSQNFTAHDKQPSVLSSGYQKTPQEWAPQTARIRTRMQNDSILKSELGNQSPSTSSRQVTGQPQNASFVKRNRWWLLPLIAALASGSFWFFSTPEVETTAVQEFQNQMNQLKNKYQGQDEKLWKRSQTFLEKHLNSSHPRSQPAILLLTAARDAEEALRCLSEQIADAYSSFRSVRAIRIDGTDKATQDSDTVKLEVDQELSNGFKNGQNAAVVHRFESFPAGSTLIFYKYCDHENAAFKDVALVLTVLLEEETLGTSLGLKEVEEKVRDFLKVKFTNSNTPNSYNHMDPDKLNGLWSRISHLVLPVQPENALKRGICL
Assay: LAP1 binders from COS7 cell lysate, primary screen, small-molecule microarray, 635/667 nm fluorescence (AID 1116)
Details: COS7-hLAP1 lysate binding, 635 nm fluorescence, higher = more signal
ENDPOINT LABEL: composite z-score
Kindly provide the number alone.

CC(=O)OC[C@H]1O[C@@H](ON=C(C)CCN2CCc3nc(-c4ccccc4)c(-c4ccccc4)cc3C2)[C@H](OC(C)=O)[C@@H](OC(C)=O)[C@@H]1OC(C)=O: 0.358
C#CCCCON=C1C[C@@H](O)[C@@H](O)[C@@H]2[C@@H]3C(=O)N(CCC(=O)OCC)C(=O)[C@@H]3CC[C@@H]12: -0.221
O=C1O[C@@H](c2ccccc2)[C@@H](c2ccccc2)N2[C@@H](c3ccc(OCCO)cc3)[C@]3(C(=O)Nc4ccccc43)[C@@H](C(=O)N3CCN(c4ncccn4)CC3)[C@H]12: 0.96

// query composite z-score value for entry CC(C)=NOCc1ccc(-c2cc(-c3ccccc3)no2)cc1
0.0444

Consider the molecule shown here: CN(C)C(=O)[C@@]1(Cc2ccccc2)N=C(c2ccc(OCCCO)cc2)O[C@H]1c1ccccc1CN=[N+]=[N-] What is its recorded composite z-score?
2.95

Dear colleague, I am looking for the recorded composite z-score of the following molecule: CC(C)c1ccc(NN2C(C(O)c3ccc4c(c3)OCO4)C=CC3C(=O)N(c4ccccc4)C(=O)C32)cc1 (configuration not stated)
2.2

May I ask what composite z-score has been recorded for O=C1C2C=CC(C(O)c3ccc([N+](=O)[O-])cc3)N(Nc3ccc([N+](=O)[O-])cc3)C2C(=O)N1c1ccccc1 (configuration not stated) ?
1.3
